These entries and their values trace back to patent US9187480B2.

Field: log10(Ki). Provide a value for each of the molecules that follow.
# MEASUREMENT_TARGET: CB1 (Homo sapiens (Human))
# Sequence (P21554 whole entry): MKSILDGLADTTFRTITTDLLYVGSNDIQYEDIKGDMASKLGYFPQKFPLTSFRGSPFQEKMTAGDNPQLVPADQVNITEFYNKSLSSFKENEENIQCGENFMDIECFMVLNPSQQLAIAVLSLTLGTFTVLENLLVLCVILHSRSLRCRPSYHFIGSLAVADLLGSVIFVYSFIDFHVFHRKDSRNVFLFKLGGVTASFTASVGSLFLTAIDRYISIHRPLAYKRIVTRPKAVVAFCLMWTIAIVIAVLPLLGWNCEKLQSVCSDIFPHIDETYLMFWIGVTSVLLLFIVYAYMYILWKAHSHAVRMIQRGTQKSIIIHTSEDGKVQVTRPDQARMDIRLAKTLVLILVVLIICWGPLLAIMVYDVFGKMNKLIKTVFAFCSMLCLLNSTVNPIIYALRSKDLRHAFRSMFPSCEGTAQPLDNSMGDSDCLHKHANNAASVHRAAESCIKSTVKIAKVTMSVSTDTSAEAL
# ASSAY_NAME: Displacement of [3H]CP55940 in membranes of CHO-K1 cells over-expressing CB1;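 further: reported values are averages of 3-6 independent measurements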
# MEASUREMENT_CONTEXT: read-out: Ki (nM) v. [3H]CP55940 at CB1; radioligand [3H]CP55940, CHO-K1 membranes
Parameter value (number): base-10 log of Ki in nM.

Past entries and their recorded results:
MOLECULE	log10(Ki)
CC(=O)NC1(c2ccccc2)CCN(c2ncnc3c2nc(-c2ccccc2Cl)n3-c2ccc(Cl)cc2)CC1	0.78
NC(=O)C1(c2ccccc2)CCN(c2ncnc3c2nc(-c2ccccc2Cl)n3-c2ccc(Cl)cc2)CC1	0.25
O=C(NC1CCN(c2ncnc3c2nc(-c2ccccc2Cl)n3-c2ccc(Cl)cc2)CC1)C1CCCCC1	0.53
CC(C)(C)OC(=O)NC1(c2ccccc2)CCN(c2ncnc3c2nc(-c2ccccc2Cl)n3-c2ccc(Cl)cc2)CC1	0.85
CCNC(=O)NC1(c2ccccc2)CCN(c2ncnc3c2nc(-c2ccccc2Cl)n3-c2ccc(Cl)cc2)CC1	2.29

For the 7 molecules below, give their log10(Ki) values.
1. CCOC(=O)NC1CCN(c2ncnc3c2nc(-c2ccccc2Cl)n3-c2ccc(Cl)cc2)CC1 [drawing 62]
2. CS(=O)(=O)NC1(c2ccccc2)CCN(c2ncnc3c2nc(-c2ccccc2Cl)n3-c2ccc(Cl)cc2)CC1
3. CC(C)(C)NC(=O)C1(c2ccccc2)CCN(c2ncnc3c2nc(-c2ccccc2Cl)n3-c2ccc(Cl)cc2)CC1
4. NC1(c2ccccc2)CCN(c2ncnc3c2nc(-c2ccccc2Cl)n3-c2ccc(Cl)cc2)CC1
5. CC(C)(C)NC(=O)NC1(c2ccccc2)CCN(c2ncnc3c2nc(-c2ccccc2Cl)n3-c2ccc(Cl)cc2)CC1
6. CS(=O)(=O)NCC1CCC(CNc2ncnc3c2nc(-c2ccccc2Cl)n3-c2ccc(Cl)cc2)CC1 (centres unmarked)
7. O=C(CC1CCCC1)NC1CCN(c2ncnc3c2nc(-c2ccccc2Cl)n3-c2ccc(Cl)cc2)CC1

1. 0.55
2. 0.79
3. 0.61
4. 1.04
5. 1.41
6. 2.41
7. 0.31

Count: 5. Required value per item: log10(Ki).
1. O=S1(=O)CCN(c2ncnc3c2nc(-c2ccccc2Cl)n3-c2ccc(Cl)cc2)CC1
2. O=C(NC1CCN(c2ncnc3c2nc(-c2ccccc2Cl)n3-c2ccc(Cl)cc2)CC1)C1CCCC1
3. O=S(=O)(NC1CCN(c2ncnc3c2nc(-c2ccccc2Cl)n3-c2ccc(Cl)cc2)CC1)C(F)(F)F
4. CCCCC(=O)NC1CCN(c2ncnc3c2nc(-c2ccccc2Cl)n3-c2ccc(Cl)cc2)CC1 [drawing 78]
5. CC(C)(C)OC(=O)N1CCC(Nc2ncnc3c2nc(-c2ccccc2Cl)n3-c2ccc(Cl)cc2)CC1

1. 1.51
2. 0.19
3. 0.79
4. 1.29
5. 1.38
